- measured.target: CBP20 (Homo sapiens, UniProt P52298)
- Construct: CBP20 alone, recombinant, purified as described previously
- Sequence (P52298 2-156): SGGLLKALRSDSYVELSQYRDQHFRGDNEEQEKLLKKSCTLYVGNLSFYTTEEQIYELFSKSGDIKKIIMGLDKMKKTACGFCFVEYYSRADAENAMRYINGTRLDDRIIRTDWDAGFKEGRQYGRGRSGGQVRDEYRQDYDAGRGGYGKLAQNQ
- experiment.notes: isothermal titration calorimetry
- assay.conditions: 250 mM NaCl, 20 mM HEPES, 2 mM TCEP, pH 7.8, 25 °C; CBP20 without CBP80
observation.type: Kd (µM)

> print(dat)
                                   molecule  unit  experimental.value
1  C[n+]1cn([C@@H]2O[C@H](COP(=O)(O)OP(=O)(O)OP(=O)(O)O)[C@@H](O)[C@H]2O)c2nc(N)[nH]c(=O)c21 [m^7GTP]    µM                  84

----------
- measured.target: NCBP3 (full-length, residues 1–620) (Homo sapiens, UniProt Q53F19)
- Sequence (Q53F19 whole entry, the tested form may be a part): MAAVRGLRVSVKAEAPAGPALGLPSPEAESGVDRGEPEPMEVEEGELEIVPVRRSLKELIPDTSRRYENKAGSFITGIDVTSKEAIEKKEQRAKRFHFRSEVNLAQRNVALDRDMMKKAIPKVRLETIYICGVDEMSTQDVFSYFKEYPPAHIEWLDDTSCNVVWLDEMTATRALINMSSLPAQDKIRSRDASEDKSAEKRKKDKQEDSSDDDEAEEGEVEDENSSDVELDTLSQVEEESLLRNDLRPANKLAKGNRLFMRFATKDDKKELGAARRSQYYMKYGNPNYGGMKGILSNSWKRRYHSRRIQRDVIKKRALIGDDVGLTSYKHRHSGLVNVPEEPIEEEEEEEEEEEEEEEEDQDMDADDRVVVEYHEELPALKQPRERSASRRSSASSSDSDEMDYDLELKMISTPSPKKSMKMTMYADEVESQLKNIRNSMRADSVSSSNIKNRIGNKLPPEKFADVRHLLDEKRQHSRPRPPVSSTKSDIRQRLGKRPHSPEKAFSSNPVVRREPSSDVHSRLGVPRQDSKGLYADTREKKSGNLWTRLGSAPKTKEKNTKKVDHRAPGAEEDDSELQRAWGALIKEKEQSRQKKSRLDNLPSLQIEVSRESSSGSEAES
observation.type: Kd

> print(dat)
                            compound.smiles  observation.type  experimental.value
1  C[n+]1cn([C@@H]2O[C@H](COP(=O)(O)OP(=O)(O)OP(=O)(O)O)[C@@H](O)[C@H]2O)c2nc(N)[nH]c(=O)c21                Kd              4.6 µM
